Values from patent US5962487A

Assay: in vitro
Format: cell-based
Conditions: human, hi-hela cells

| input_smiles | unit_descriptor | result_comparator | CC50 at 48 h |
| --- | --- | --- | --- |
| CCOC(=O)/C=C/[C@H](CCC(N)=O)NC(=O)[C@H](Cc1ccccc1)N(C)C(=O)[C@H](CC(C)C)NC(=O)SC1CCCCC1 | µM | = | 50.1 |
| CCOC(=O)/C=C/[C@H](CCC(N)=O)NC(=O)[C@H](Cc1ccc(OC)cc1)N(C)C(=O)[C@H](CC(C)C)NC(=O)SCC | µM | = | 200 |
| CCOC(=O)/C=C/[C@H](CCC(N)=O)NC(=O)[C@@H]1CCc2ncc(NC(=O)OCc3ccccc3)c(=O)n21 | µM | > | 100 |
| CCOC(=O)/C=C/[C@H](CCC(N)=O)NC(=O)[C@H](Cc1ccccc1)N(C)C(=O)[C@H](CC(C)C)NC(=O)OCc1ccccc1 | µM | = | 56 |
| CCOC(=O)/C(C)=C/[C@H](CCC(N)=O)NC(=O)[C@H](Cc1ccccc1)N(C)C(=O)[C@H](CC(C)C)NC(=O)SC1CCCCC1 | µM | = | 56.2 |
| CCOC(=O)/C(C)=C/[C@H](CCC(N)=O)NC(=O)[C@H](Cc1ccccc1)N(C)C(=O)[C@H](CC(C)C)NC(=O)SCC(C)C | µM | = | 56.2 |

---

Test: in vitro
Format: cell-based
Conditions: human, hi-hela cells
Note to self: CC50 at 48 h under 50 µM means true (1), ties and anything higher get false (0).

| compound | qualitative_label |
| --- | --- |
| CCOC(=O)/C=C/[C@H](CCC(N)=O)NC(=O)Cn1c(-c2ccccc2)ncc(NC(=O)OCc2ccccc2)c1=O [Compound 30] | false (0) |
| CCOC(=O)C=CC(CCC(N)=O)NC(=O)C1CC(OC(C)(C)C)CN1C(=O)C(CC(C)C)NC(=O)OCc1ccccc1 (stereo not drawn) [Compound 23] | false (0) |
| CCOC(=O)/C(C)=C/[C@H](CCC(N)=O)NC(=O)[C@H](Cc1ccccc1)N(C)C(=O)[C@H](CC(C)C)NC(=O)SC(C)C [Compound 39] | false (0) |
| CCOC(=O)/C=C/[C@H](CCC(N)=O)NC(=O)C1CN(S(=O)(=O)c2ccccc2)CCN1C(=O)[C@H](CC(C)C)NC(=O)OCc1ccccc1 (mixture of isomers) [Compound 29] | false (0) |
| CCOC(=O)/C=C/[C@H](CCC(N)=O)NC(=O)C1CNCCN1C(=O)[C@H](CC(C)C)NC(=O)OCc1ccccc1 (mixture of isomers) [Compound 27] | false (0) |
| CCOC(=O)/C=C/C(CCC(N)=O)NC(=O)[C@@H]1CCc2ncc(NC(=O)SC3CCCC3)c(=O)n21 (stereo partly drawn) [Compound 51] | false (0) |
| CCOC(=O)/C(C)=C/[C@H](CCC(N)=O)NC(=O)[C@H](Cc1ccc(C)cc1)N(C)C(=O)[C@H](CCc1ccccc1)NC(=O)SCc1ccccc1 [Compound 14] | true (1) |
| CCOC(=O)/C=C/[C@H](CCC(N)=O)NC(=O)[C@H](Cc1ccccc1)N(C)C(=O)[C@H](CC(C)C)NC(=O)SCC [Compound 11] | false (0) |
| CCOC(=O)/C=C/C(CCC(N)=O)NC(=O)[C@@H]1CCc2ncc(N(C(=O)SC3CCCC3)C(=O)SC3CCCC3)c(=O)n21 (stereo partly drawn) [Compound 50] | false (0) |
| CCOC(=O)/C=C/[C@H](CCC(N)=O)NC(=O)[C@@H]1C[C@@H](OCc2ccccc2)CN1C(=O)[C@H](CC(C)C)NC(=O)OCc1ccccc1 [Compound 20] | false (0) |
| CCOC(=O)/C(C)=C/[C@H](CCC(N)=O)NC(=O)[C@H](Cc1ccccc1)N(C)C(=O)[C@H](CSc1ccccc1)NC(=O)SC1CCCC1 [Compound 47] | true (1) |
| CCSC(=O)N[C@@H](CC(C)C)C(=O)N(C)[C@@H](Cc1ccccc1)C(=O)N[C@H](/C=C/C(=O)N1CCOC1=O)CCC(N)=O [Compound 17] | false (0) |

---

Assay: in vitro
Assay type: cell-based
Details: human, hi-hela cells
Each record here notes measured CC50 at 48 h.
metric_name: CC50 at 48 h

| compound | metric_name | value_observed |
| --- | --- | --- |
| CCOC(=O)/C=C/[C@H](CCC(N)=O)NC(=O)[C@H](Cc1ccccc1)n1cc[nH]c1=O | CC50 at 48 h | > 320 µM |
| CCOC(=O)/C(C)=C/[C@H](CCC(N)=O)NC(=O)[C@H](Cc1ccccc1)N(C)C(=O)[C@H](CC(C)C)NC(=O)SCc1ccccc1 | CC50 at 48 h | 32 µM |
| CCOC(=O)/C=C/[C@H](CCC(N)=O)NC(=O)[C@@H]1CCCCN1C(=O)[C@H](CC(C)C)NC(=O)OCc1ccccc1 | CC50 at 48 h | > 320 µM |
| CCOC(=O)/C=C/C(CCC(N)=O)NC(=O)[C@H](Cc1ccccc1)N1CC[C@H](NC(=O)OCc2ccccc2)C1=O (stereo partly shown) | CC50 at 48 h | > 100 µM |

---

Assay: in vitro
Format: cell-based
Details: human, hi-hela cells
Each record here notes measured CC50 at 48 h.

| input_smiles | CC50 at 48 h |
| --- | --- |
| CCOC(=O)/C=C/[C@H](CCC(N)=O)NC(=O)[C@H](Cc1ccccc1)n1ccn(NC(=O)OCc2ccccc2)c1=O | > 320 µM |
| CCOC(=O)/C=C/[C@H](CCC(N)=O)NC(=O)[C@H](Cc1ccc(C)cc1)N(C)C(=O)[C@@H](NC(=O)SC1CCCC1)C(C)(C)C | > 10 µM |
| CCOC(=O)/C=C/[C@H](CCC(N)=O)NC(=O)[C@H](Cc1ccccc1)N(C)C(=O)[C@H](CC(C)C)NC(=O)SCC(C)C | 56.2 µM |

---

Assay: in vitro
Type: cell-based
Conditions: human, hi-hela cells
Each record here notes measured CC50 at 48 h.

| molecule | result_comparator | CC50 at 48 h / µM |
| --- | --- | --- |
| CCSC(=O)N[C@@H](CC(C)C)C(=O)N(C)[C@@H](Cc1ccccc1)C(=O)N[C@H](/C=C/C(=O)N1CCc2ccccc21)CCC(N)=O | = | 47.9 |
| CC(C)C[C@H](NC(=O)SC1CCCC1)C(=O)N(C)[C@@H](Cc1ccccc1)C(=O)N[C@H](/C=C/C(=O)OCc1ccccc1)CCC(N)=O | = | 20 |
| Cc1cc(CCCCCCCOc2ccc(C3=N[C@@H](C)CO3)cc2)on1 [WIN 52084, reference compound] | > | 10 |
| CCCOC(=O)/C=C/[C@H](CCC(N)=O)NC(=O)[C@H](Cc1ccccc1)N(C)C(=O)[C@H](CC(C)C)NC(=O)SC1CCCC1 | = | 50 |
| Cc1cc(CCCCCOc2c(Cl)cc(C3=NCCO3)cc2Cl)on1 [WIN 54954, reference compound] | > | 63 |
| CN(C(=O)[C@H](CCc1ccccc1)NC(=O)SCc1ccccc1)[C@@H](Cc1ccccc1)C(=O)N[C@H](/C=C1\CCOC1=O)CCC(N)=O | = | 56.2 |

---

Target: Rhinovirus 3C protease (RVP) serotype 16 (Human rhinovirus 16)
Construct: Recombinant Rhinovirus 3C proteases from serotypes 14, 16, 2 or 89 were prepared; made in house
Sequence (Q82122 1511-1693): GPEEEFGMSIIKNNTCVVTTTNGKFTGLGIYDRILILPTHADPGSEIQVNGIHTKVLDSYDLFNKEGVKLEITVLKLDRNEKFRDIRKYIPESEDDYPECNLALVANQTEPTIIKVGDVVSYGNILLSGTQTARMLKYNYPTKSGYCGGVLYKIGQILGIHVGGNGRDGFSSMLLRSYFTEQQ
Assay: Inhibition of Rhinovirus Protease, serotype 16 (FRET assay)
Type: biochemical
Conditions: enzyme start experiments, read-out: kobs/I
Respond with Met for kinact/KI values of 1000 M⁻¹ s⁻¹ and above, Not met for values below.

| molecule | assayed_target | qualitative_label |
| --- | --- | --- |
| CCOC(=O)/C=C/[C@H](CCC(N)=O)NC(=O)[C@@H]1CCCN1C(=O)[C@H](CC(C)C)NC(=O)SCC [Compound 24] | Rhinovirus 3C protease (RVP) serotype 16 (Human rhinovirus 16) | Met |
| CCOC(=O)/C=C/[C@H](CCC(N)=O)NC(=O)[C@H](Cc1ccccc1)N(C)C(=O)[C@H](CC(C)C)NC(=O)SCc1ccccc1 [Compound 15] | Rhinovirus 3C protease (RVP) serotype 16 (Human rhinovirus 16) | Met |
| CCOC(=O)/C=C/[C@H](CCC(N)=O)NC(=O)[C@H](Cc1ccccc1)N(C)C(=O)[C@@H](NC(=O)SCC)C(C)C [Compound 34] | Rhinovirus 3C protease (RVP) serotype 16 (Human rhinovirus 16) | Met |
| CCSC(=O)N[C@@H](CC(C)C)C(=O)N(C)[C@@H](Cc1ccccc1)C(=O)N[C@H](/C=C/C(=O)N(C)OC)CCC(N)=O [Compound 36] | Rhinovirus 3C protease (RVP) serotype 16 (Human rhinovirus 16) | Not met |
| CCOC(=O)/C=C/[C@H](CCC(N)=O)NC(=O)[C@@H]1CCCCN1C(=O)[C@H](CC(C)C)NC(=O)OCc1ccccc1 [Compound 25] | Rhinovirus 3C protease (RVP) serotype 16 (Human rhinovirus 16) | Not met |
| CCOC(=O)/C(C)=C/[C@H](CCC(N)=O)NC(=O)[C@H](Cc1ccc(C)cc1)N(C)C(=O)[C@H](CCc1ccccc1)NC(=O)SCc1ccccc1 [Compound 14] | Rhinovirus 3C protease (RVP) serotype 16 (Human rhinovirus 16) | Met |
| CCOC(=O)/C=C/[C@H](CCC(N)=O)NC(=O)C1CNCCN1C(=O)[C@H](CC(C)C)NC(=O)OCc1ccccc1 (mixture of isomers) [Compound 27] | Rhinovirus 3C protease (RVP) serotype 16 (Human rhinovirus 16) | Not met |
| CCOC(=O)/C=C/[C@H](CCC(N)=O)NC(=O)[C@H](Cc1ccc(OC)cc1)N(C)C(=O)[C@H](CC(C)C)NC(=O)SCC [Compound 4] | Rhinovirus 3C protease (RVP) serotype 16 (Human rhinovirus 16) | Met |
| CCOC(=O)/C=C/[C@H](CCC(N)=O)NC(=O)[C@H](Cc1ccc(OC)cc1)N(C)C(=O)[C@H](CC(C)C)NC(=O)OCc1ccccc1 [Compound 3] | Rhinovirus 3C protease (RVP) serotype 16 (Human rhinovirus 16) | Not met |
| CCOC(=O)/C=C/[C@H](CCC(N)=O)NC(=O)[C@H](Cc1ccc(C)cc1)N(C)C(=O)[C@H](CCc1ccccc1)NC(=O)SCc1ccccc1 [Compound 13] | Rhinovirus 3C protease (RVP) serotype 16 (Human rhinovirus 16) | Met |
| CCOC(=O)/C=C/[C@H](CCC(N)=O)NC(=O)[C@H](Cc1ccccc1)N(C)C(=O)[C@@H](NC(=O)SC1CCCC1)C(C)C [Compound 35] | Rhinovirus 3C protease (RVP) serotype 16 (Human rhinovirus 16) | Met |
| CCOC(=O)/C=C/[C@H](CCC(N)=O)NC(=O)[C@@H]1CCc2ncc(NC(=O)OCc3ccccc3)c(=O)n21 [Compound 37] | Rhinovirus 3C protease (RVP) serotype 16 (Human rhinovirus 16) | Met |
| CCOC(=O)/C=C/[C@H](CCC(N)=O)NC(=O)[C@H](Cc1ccccc1)N(C)C(=O)[C@H](CC(C)C)NC(=O)OCc1ccccc1 [Compound 2] | Rhinovirus 3C protease (RVP) serotype 16 (Human rhinovirus 16) | Met |
